Tested on: NS3 GT1a mutant replicons
Assay type: cell-based, HCV
TEST CONTEXT: mutant D168E
EXPERIMENTAL READOUT: fold change in EC50 vs wild-type GT1a (fold)
Write the answer as a number in fold, unit excluded.

COC(=O)N[C@H](C(=O)N1CC2(CC2)C[C@H]1c1ncc(-c2ccc3c(c2)C(F)(F)c2cc(-c4ccc5nc([C@@H]6[C@H]7CC[C@H](C7)N6C(=O)[C@@H](NC(=O)OC)C(C)C)[nH]c5c4)ccc2-3)[nH]1)C(C)C
1.3
CC(C)OC(=O)[C@H](C)N[P@](=O)(OC[C@H]1O[C@@](C#N)(c2ccc3c(N)ncnn23)[C@](C)(O)[C@@H]1OC(=O)C(C)C)Oc1ccccc1
1.5
CC1=CC[C@H](C(=O)N(c2cc(C#CC(C)(C)C)sc2C(=O)O)[C@H]2CC[C@](O)(CO[C@H]3CCOC3)CC2)CC1
0.7

Request: Any idea what fold change in EC50 vs wild-type GT1a was measured for CC[C@@H]1C[C@]1(NC(=O)[C@@H]1C[C@@H](Oc2cc(-c3csc(NC(C)C)n3)nc3c(Cl)c(OCCN4CCOCC4)ccc23)CC1C(=O)[C@@H](NC(=O)O[C@@H]1C[C@@H]2C[C@@H]2C1)C(C)(C)C)C(=O)O (stereo partly shown) ?
Result: 25.1

----------
Tested on: NS3 GT1a mutant replicons
Assay type: cell-based, HCV
TEST CONTEXT: mutant R155k + Q30H
Method: GT1b and GT1a replicons carrying Renilla Luciferase reporter were used to generate the mutant replicons. The mutations were introduced into the replicon construct by site-directed mutagenesis and confirmed by sequencing. Mutant replicon RNAs were generated from DNA by in vitro transcription and transfected into Huh-7 Lunet or C1 cells Compounds were serially diluted 1:3 in 100% DMSO (Sigma). […] EC50 values were calculated using Prism. […]
Recorded fold change in EC50 vs wild-type GT1a values for a group of compounds are listed next.
Write the answer as a number in fold, unit excluded.

CC1=CC[C@H](C(=O)N(c2cc(C#CC(C)(C)C)sc2C(=O)O)[C@H]2CC[C@](O)(CO[C@H]3CCOC3)CC2)CC1 [Compound 5]
0.6

Request: Identify the measured fold change in EC50 vs wild-type GT1a of CC(C)OC(=O)[C@H](C)N[P@](=O)(OC[C@H]1O[C@@](C#N)(c2ccc3c(N)ncnn23)[C@](C)(O)[C@@H]1OC(=O)C(C)C)Oc1ccccc1 [Compound 4] for NS3 GT1a mutant replicons.
Result: 0.6

Request: Item: COC(=O)N[C@H](C(=O)N1CC2(CC2)C[C@H]1c1ncc(-c2ccc3c(c2)C(F)(F)c2cc(-c4ccc5nc([C@@H]6[C@H]7CC[C@H](C7)N6C(=O)[C@@H](NC(=O)OC)C(C)C)[nH]c5c4)ccc2-3)[nH]1)C(C)C [Compound 6]
Result: 49.4

----------
Tested on: Huh-7 cells carrying a HCV genotype 1a replicon
ASSAY DETAILS: Biological Example 3: cytotoxicity in combination studies (MacSynergy II)
TEST CONTEXT: in combination with Compound 4
EXPERIMENTAL READOUT: Synergy Volume (cytotoxicity) (nM^2%)
Write the answer as a number in nM^2%, unit excluded.

See these solved cases before continuing.
CC1=CC[C@H](C(=O)N(c2cc(C#CC(C)(C)C)sc2C(=O)O)[C@H]2CC[C@](O)(CO[C@H]3CCOC3)CC2)CC1
15
CC[C@@H]1C[C@]1(NC(=O)[C@@H]1C[C@@H](Oc2cc(-c3csc(NC(C)C)n3)nc3c(Cl)c(OCCN4CCOCC4)ccc23)CC1C(=O)[C@@H](NC(=O)O[C@@H]1C[C@@H]2C[C@@H]2C1)C(C)(C)C)C(=O)O (some centres unmarked)
3
COC(=O)N[C@H](C(=O)N1CC2(CC2)C[C@H]1c1ncc(-c2ccc3c(c2)C(F)(F)c2cc(-c4ccc5nc([C@@H]6[C@H]7CC[C@H](C7)N6C(=O)[C@@H](NC(=O)OC)C(C)C)[nH]c5c4)ccc2-3)[nH]1)C(C)C
8

Request: Identify the measured Synergy Volume (cytotoxicity) of "Fc1ccccc1-c1nc2ccn(Cc3ccc(-c4ccc(C(F)(F)F)cc4C(F)(F)F)nn3)cc-2n1" for Huh-7 cells carrying a HCV genotype 1a replicon.
Result: 13

Request: Item: "COc1ccc2c(O[C@@H]3C[C@H]4C(=O)N[C@]5(P(=O)(O)Cc6c(F)cccc6F)C[C@H]5CCCCCCC[C@H](NC(=O)OC5CCCC5)C(=O)N4C3)cc(-c3csc(NC(C)C)n3)nc2c1Cl"
Result: 17

----------
System: Huh-7 cells carrying a HCV genotype 1a replicon
ASSAY DETAILS: Biological Example 3: cytotoxicity in combination studies (MacSynergy II)
TEST CONTEXT: in combination with Compound 4
Recorded Antagonism Volume (cytotoxicity) values for a group of molecules are listed next.
Write the answer as a number in nM^2%, unit excluded.

See these solved cases before continuing.
CC1=CC[C@H](C(=O)N(c2cc(C#CC(C)(C)C)sc2C(=O)O)[C@H]2CC[C@](O)(CO[C@H]3CCOC3)CC2)CC1
−10
CC[C@@H]1C[C@]1(NC(=O)[C@@H]1C[C@@H](Oc2cc(-c3csc(NC(C)C)n3)nc3c(Cl)c(OCCN4CCOCC4)ccc23)CC1C(=O)[C@@H](NC(=O)O[C@@H]1C[C@@H]2C[C@@H]2C1)C(C)(C)C)C(=O)O (some centres unmarked)
0
Fc1ccccc1-c1nc2ccn(Cc3ccc(-c4ccc(C(F)(F)F)cc4C(F)(F)F)nn3)cc-2n1
0
COc1ccc2c(O[C@@H]3C[C@H]4C(=O)N[C@]5(P(=O)(O)Cc6c(F)cccc6F)C[C@H]5CCCCCCC[C@H](NC(=O)OC5CCCC5)C(=O)N4C3)cc(-c3csc(NC(C)C)n3)nc2c1Cl
0

Request: Identify the measured Antagonism Volume (cytotoxicity) of "COC(=O)N[C@H](C(=O)N1CC2(CC2)C[C@H]1c1ncc(-c2ccc3c(c2)C(F)(F)c2cc(-c4ccc5nc([C@@H]6[C@H]7CC[C@H](C7)N6C(=O)[C@@H](NC(=O)OC)C(C)C)[nH]c5c4)ccc2-3)[nH]1)C(C)C" for Huh-7 cells carrying a HCV genotype 1a replicon.
Result: 0

----------
Recorded fold change in EC50 vs wild-type GT1a values for a group of compounds are listed next.
Tested on: NS3 GT1a mutant replicons
Type: cell-based, HCV
TEST CONTEXT: mutant D168G
Write the answer as a number in fold, unit excluded.

CC(C)OC(=O)[C@H](C)N[P@](=O)(OC[C@H]1O[C@@](C#N)(c2ccc3c(N)ncnn23)[C@](C)(O)[C@@H]1OC(=O)C(C)C)Oc1ccccc1 [Compound 4]
0.8
COC(=O)N[C@H](C(=O)N1CC2(CC2)C[C@H]1c1ncc(-c2ccc3c(c2)C(F)(F)c2cc(-c4ccc5nc([C@@H]6[C@H]7CC[C@H](C7)N6C(=O)[C@@H](NC(=O)OC)C(C)C)[nH]c5c4)ccc2-3)[nH]1)C(C)C [Compound 6]
0.8

Would you kindly look at the next entry?
Request: Any idea what fold change in EC50 vs wild-type GT1a was measured for CC1=CC[C@H](C(=O)N(c2cc(C#CC(C)(C)C)sc2C(=O)O)[C@H]2CC[C@](O)(CO[C@H]3CCOC3)CC2)CC1 [Compound 5] ?
Result: 1.0
